# target under test: PD1/PD-L1 (Homo sapiens)
# assay overview: NFAT activity test (TCR Activitor/PD-L1 CHO cells with PD-1/NFAT Reporter-Jurkat cells)
# Assay type: cell-based
# Design: host or cells: TCR Activitor/PD-L1 CHO cells; PD-1/NFAT Reporter-Jurkat cells
# condition notes: TCR Activitor/PD-L1 CHO cells + PD-1/NFAT Reporter-Jurkat cells, 5 hours, luciferase

mol smiles	Maximum effect (induction fold)
COc1nc(-c2cccc(-c3cccc(NC(=O)c4cc(C)c5c(n4)CN(CCO)CC5)c3Cl)c2Cl)cnc1CNCCO	4.12 induction fold
COc1nc(-c2cccc(-c3cccc(NC(=O)c4cc(C)c5c(n4)CN(CCO)CC5)c3C#N)c2Cl)cnc1CN1CC(O)C1	4.01 induction fold
COc1nc(-c2cccc(-c3cccc(NC(=O)c4cc(OC(F)F)c5c(n4)CN(CCO)CC5)c3Cl)c2Cl)cnc1CN1CC2(CC(O)C2)C1	4.37 induction fold

====

# target under test: PD1/PD-L1 (Homo sapiens, UniProt Q9NZQ7)
# Sequence (Q9NZQ7 19-290): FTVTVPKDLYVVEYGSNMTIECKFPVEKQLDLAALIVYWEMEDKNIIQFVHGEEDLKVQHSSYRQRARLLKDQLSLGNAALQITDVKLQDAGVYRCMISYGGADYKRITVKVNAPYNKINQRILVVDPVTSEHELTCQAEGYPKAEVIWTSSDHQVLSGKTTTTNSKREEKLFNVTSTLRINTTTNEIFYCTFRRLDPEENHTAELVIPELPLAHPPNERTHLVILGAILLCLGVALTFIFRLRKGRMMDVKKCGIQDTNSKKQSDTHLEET
# assay overview: NFAT activity test (TCR Activitor/PD-L1 CHO cells with PD-1/NFAT Reporter-Jurkat cells)
# Type: cell-based
# Design: host or cells: TCR Activitor/PD-L1 CHO cells; PD-1/NFAT Reporter-Jurkat cells
# condition notes: TCR Activitor/PD-L1 CHO cells + PD-1/NFAT Reporter-Jurkat cells, 5 hours, luciferase
Rule: Maximum effect (induction fold) of 4 induction fold or more gives Met; anything lower gives Not met.

compound	cat
COc1cc(C(=O)Nc2cccc(-c3cccc(-c4cnc(CN5CC(O)C5)c(OC)n4)c3Cl)c2Cl)nc2c1CCN(CCO)C2	Not met
COc1nc(-c2cccc(-c3cccc(NC(=O)c4cc(C)c5c(n4)CN(CCO)CC5)c3Cl)c2Cl)cnc1CN1CCC2(CNC(=O)C2)C1 (stereo not shown)	Met
Cc1cc(C(=O)Nc2cccc(-c3cccc(NC(=O)c4ccc(CNCCO)cn4)c3C)c2Cl)nc2c1CCN(CCO)C2	Not met
Cc1cc(C(=O)Nc2cccc(-c3cccc(NC(=O)c4ccc(CNCCO)cn4)c3Cl)c2C)nc2c1CCN(CCO)C2	Not met
COc1nc(-c2cccc(-c3cccc(NC(=O)c4cc(OC(F)F)c5c(n4)CN(CCO)CC5)c3Cl)c2Cl)cnc1CN1CC(C)(O)C1	Met
Cc1cc(C(=O)Nc2cccc(-c3cccc(Nc4nc(C(F)F)nc5cc(CN6CC[C@@H](O)C6)cnc45)c3C)c2Cl)nc2c1CCN(CC(=O)O)C2	Met
COc1cc(C(=O)Nc2cccc(-c3cccc(-c4cnc(CN5CC(CO)C5)c(OC)n4)c3Cl)c2Cl)nc2c1CCN(CCO)C2	Met
COc1nc(-c2cccc(-c3cccc(NC(=O)c4cc(C)c5c(n4)CN(CCO)CC5)c3Cl)c2Cl)cnc1CN1CCC(CO)C1 (stereo not shown)	Met
COc1nc(-c2cccc(-c3cccc(NC(=O)c4cc(C)c5c(n4)CN(CCO)CC5)c3Cl)c2Cl)cnc1CN1CC(CO)C1	Met
COc1nc(-c2cccc(-c3cccc(NC(=O)c4cc(OCC#N)c5c(n4)CN(CCO)CC5)c3Cl)c2Cl)cnc1CN1CC(O)C1	Met
COc1nc(-c2cccc(-c3cccc(NC(=O)c4nc(C)c5c(n4)CN(CCO)CC5)c3Cl)c2Cl)cnc1CN1CC(O)C1	Not met
COc1nc(-c2cccc(-c3cccc(NC(=O)c4cc(C#N)c5c(n4)CN(CCO)CC5)c3Cl)c2Cl)cnc1CN1CC(O)C1	Met
COc1nc(-c2cccc(-c3cccc(NC(=O)c4cc(C)c5c(n4)CN(CCC(C)O)CC5)c3Cl)c2Cl)cnc1CN1CC(O)C1 (stereo not shown)	Met

====

# target under test: PD-L1 in MDA-MR-231 cells (Homo sapiens, UniProt Q9NZQ7)
# Construct: endogenous in cells
# Sequence (Q9NZQ7 19-290): as above
# assay overview: Effect on expression level of PD-L1 in MDA-MR-231 cells (FACS)
# condition notes: 24 hours incubation, FACS detection of cell surface PD-L1
recorded metric: IC50 (nM)

compound	unit descriptor	number
Cc1cc(C(=O)Nc2cccc(-c3cccc(NC(=O)c4ccc(CNCCO)cn4)c3C)c2Cl)nc2c1CCN(C1CCC(O)CC1)C2 (stereo not shown)	nM	29.3
Cc1cc(C(=O)Nc2cccc(-c3cccc(NC(=O)c4ccc(CNCCO)cn4)c3C)c2Cl)nc2c1CCN(CC(=O)O)C2	nM	0.75
COc1nc(-c2cccc(-c3cccc(NC(=O)c4cc(C)c5c(n4)CN(C(C)CO)CC5)c3Cl)c2Cl)cnc1CN1CC(O)C1 (stereo not shown)	nM	14.6
Cc1cc(C(=O)Nc2cccc(-c3cccc(NC(=O)c4ccc(CNCCO)cn4)c3Cl)c2Cl)nc2c1CCN(CCO)C2	nM	32.7

====

# target under test: PD1/PD-L1 (Homo sapiens)
# assay overview: NFAT activity test (TCR Activitor/PD-L1 CHO cells with PD-1/NFAT Reporter-Jurkat cells)
# Format: cell-based
# Design: host or cells: TCR Activitor/PD-L1 CHO cells; PD-1/NFAT Reporter-Jurkat cells
# condition notes: TCR Activitor/PD-L1 CHO cells + PD-1/NFAT Reporter-Jurkat cells, 5 hours, luciferase; read-out: IC50, inhibitory activity on PD1/PD-L1 binding (NFAT activity test)

compound	unit descriptor	IC50
COc1cc(C(=O)Nc2cccc(-c3cccc(-c4cnc(CN5CC(CO)C5)c(OC)n4)c3Cl)c2Cl)nc2c1CCN(CCO)C2 [Compound 55]	nM	25.2
Cc1cc(C(=O)Nc2cccc(-c3cccc(NC(=O)c4ccc(CNCCO)cn4)c3Cl)c2Cl)nc2c1CCN(CCO)C2 [Compound 5]	nM	16.2
COc1cc(C(=O)Nc2cccc(-c3cccc(-c4cnc(CN5CC6(CC(O)C6)C5)c(OC)n4)c3Cl)c2Cl)nc2c1CCN(CCO)C2 [Compound 53]	nM	13.7
COc1nc(-c2cccc(-c3cccc(NC(=O)c4cc(C)c5c(n4)CN(CCO)CC5)c3Cl)c2Cl)cnc1CN1CC(O)C1 [Compound 21]	nM	13.9
COc1nc(-c2cccc(-c3cccc(NC(=O)c4cc(C#N)c5c(n4)CN(CCO)CC5)c3Cl)c2Cl)cnc1CN1CCC(CO)C1 (stereo not shown) [Compound 61]	nM	53.8
COc1nc(-c2cccc(-c3cccc(NC(=O)c4cc(C)c5c(n4)CN(CC(C)O)CC5)c3Cl)c2Cl)cnc1CN1CC(O)C1 (stereo not shown) [Compound 44]	nM	207
Cc1cc(C(=O)Nc2cccc(-c3cccc(Nc4nc(C(F)F)nc5cc(CN6CC[C@@H](O)C6)cnc45)c3C)c2Cl)nc2c1CCN(CC(=O)O)C2 [Compound 23]	nM	18.4
COc1nc(-c2cccc(-c3cccc(NC(=O)c4cc(C)c5c(n4)CN(CCO)CC5)c3C#N)c2Cl)cnc1CN1CC(O)C1 [Compound 47]	nM	52
COc1nc(-c2cccc(-c3cccc(NC(=O)c4cc(C)c5c(n4)CCN(CCO)C5)c3Cl)c2Cl)cnc1CN1CC(O)C1 [Compound 43]	nM	242
COc1nc(-c2cccc(-c3cccc(NC(=O)c4cc(C#N)c5c(n4)CN(CCO)CC5)c3Cl)c2Cl)cnc1CN1CC(CO)C1 [Compound 60]	nM	55.5
COc1nc(-c2cccc(-c3cccc(NC(=O)c4cc(C)c5c(n4)CN(CCC(C)O)CC5)c3Cl)c2Cl)cnc1CN1CC(O)C1 (stereo not shown) [Compound 49]	nM	175
COc1cc(C(=O)Nc2cccc(-c3cccc(-c4cnc(CN5CCC(CO)C5)c(OC)n4)c3Cl)c2Cl)nc2c1CCN(CCO)C2 (stereo not shown) [Compound 56]	nM	10.1
COc1cc(C(=O)Nc2cccc(-c3cccc(-c4cnc(CN5CC(C)(O)C5)c(OC)n4)c3Cl)c2Cl)nc2c1CCN(CCO)C2 [Compound 42]	nM	23.4

====

# assay overview: Pharmacokinetic test in C57BL/6 mice
# Format: in vivo
# condition notes: mouse; male C57BL/6 mice, plasma; IV 1 mg/kg; read-out: Tissue distribution Vdss
# Protocol: Experimental Example 4: Pharmacokinetic Test Experimental purpose: To study the pharmacokinetics of compounds in C57BL/6 mice. Experimental materials: C57BL/6 mice (male, 8 weeks old, body weight 25 g-30 g) Experimental operation: The pharmacokinetic characteristics of rodents after intravenous (IV) and oral (PO) administration of compounds were tested in standard protocols. […]

mol smiles	Vd
COc1cc(C(=O)Nc2cccc(-c3cccc(-c4cnc(CN5CC(C)(O)C5)c(OC)n4)c3Cl)c2Cl)nc2c1CCN(CCO)C2	40.8 L/kg
COc1nc(-c2cccc(-c3cccc(NC(=O)c4cc(C)c5c(n4)CN(CCO)CC5)c3Cl)c2Cl)cnc1CN1CC(O)C1	65.6 L/kg
COc1nc(-c2cccc(-c3cccc(NC(=O)c4cc(C)c5c(n4)CN(CCO)C5)c3Cl)c2Cl)cnc1CN1CC(O)C1	18.3 L/kg

====

# target under test: PD1/PD-L1 (Homo sapiens)
# assay overview: NFAT activity test (TCR Activitor/PD-L1 CHO cells with PD-1/NFAT Reporter-Jurkat cells)
# Assay type: cell-based
# Design: host or cells: TCR Activitor/PD-L1 CHO cells; PD-1/NFAT Reporter-Jurkat cells
# condition notes: TCR Activitor/PD-L1 CHO cells + PD-1/NFAT Reporter-Jurkat cells, 5 hours, luciferase; read-out: IC50, inhibitory activity on PD1/PD-L1 binding (NFAT activity test)
pIC50: −log10 of the molar value.
recorded metric: pIC50

compound	number
Cc1cc(C(=O)Nc2cccc(-c3cccc(NC(=O)c4ccc(CNCCO)cn4)c3C)c2Cl)nc2c1CCN(C1CCC(O)CC1)C2 (stereo not drawn) [Compound 15]	7.47
COc1nc(-c2cccc(-c3cccc(NC(=O)c4cc(C#N)c5c(n4)CN(CCO)CC5)c3Cl)c2Cl)cnc1CNCCO [Compound 59]	6.78
COc1nc(-c2cccc(-c3cccc(NC(=O)c4cc(C)c5c(n4)CN(CCO)C5)c3Cl)c2Cl)cnc1CN1CC(O)C1 [Compound 50]	7.34
